assay_overview: In vitro transbuccal permeation of 0.5% ODAN.HCl gel with iontophoresis and/or chemical enhancers (Franz diffusion cells)
condition_set: Stage I; iontophoresis 0.3 mA
Structures can show the parent of a compound that is named as a salt.

molecule | Q8 (µg/cm²)
Cc1nccn1CC1CCc2c(c3ccccc3n2C)C1=O (racemic) [ODAN•HCl, monohydrochloride, dihydrate] | 190

====

assay_overview: In vitro transbuccal permeation of 0.5% ODAN.HCl gel with iontophoresis and/or chemical enhancers (Franz diffusion cells)
condition_set: 0.5% ODAN.HCl gel; Stage I; Control (passive)
Where a name gives a salt, the structure may show the parent alone.

compound | unit_of_measure | Q8
Cc1nccn1CC1CCc2c(c3ccccc3n2C)C1=O (racemic) [ODAN•HCl, monohydrochloride, dihydrate] | µg/cm² | 25.5

====

assay_overview: In vitro transbuccal permeation of 0.5% ODAN.HCl gel with iontophoresis and/or chemical enhancers (Franz diffusion cells)
condition_set: Stage II after 8 h iontophoresis 0.1 mA
Counter-ions that a name gives are not always drawn.
assay_readout: Q24 (µg/cm²)

molecule | measured_number
Cc1nccn1CC1CCc2c(c3ccccc3n2C)C1=O (racemic) [ODAN•HCl, monohydrochloride, dihydrate] | 297

====

assay_overview: In vitro transbuccal permeation of 0.5% ODAN.HCl gel with iontophoresis and/or chemical enhancers (Franz diffusion cells)
condition_set: Stage II after 8 h iontophoresis 0.3 mA
Where a name gives a salt, the structure may show the parent alone.

compound | Q24
Cc1nccn1CC1CCc2c(c3ccccc3n2C)C1=O (racemic) [ODAN•HCl, monohydrochloride, dihydrate] | 380 µg/cm²
